assay: NCI Yeast Anticancer Drug Screen. Data for the rad50EPP+ strain (AID 151); conditions: S. cerevisiae rad50 mutant strain, at 11.0 µM
This is part of a sample that, as a whole, favours compounds with a hit. Of some 79,000 tested, about 15% had one in any assay. Activity calls are given as the source filed them. Rule as the data show it: active = growth inhibition above about 70%; inactive = the rest.
Outcomes: active, inactive

# compound, assigned.category
records = [
    ("O=C(NO)c1coc2ccccc2c1=O", "inactive"),
    ("Nc1ccc(S(=O)(=O)Nc2nc3c(c(=O)[nH]2)CCCC3)cc1", "active"),
    ("c1ccc2c(c1)N=C1CCCC3CCCC123 (stereo not drawn)", "inactive"),
    ("O=C(NCCNCCNC(=O)c1cc(-c2ccccc2)nc2ccccc12)c1cc(-c2ccccc2)nc2ccccc12", "inactive"),
    ("Cc1ccc(NC(=O)CCC(=O)C(C)C(=O)c2ccccc2)c(C)c1 (stereo not drawn)", "inactive"),
    ("Cc1cc(C)c2[s+]snc2c1", "inactive"),
    ("O=C(Nc1cccs1)c1ccccc1", "inactive"),
    ("CN(C)CCNC(=Cc1ccc2ccccc2[n+]1C)NCCN(C)C", "inactive"),
    ("CC(C)=CCc1c2c(c(O)c3c(=O)c(-c4ccc(O)c(O)c4)coc13)C=CC(C)(C)O2", "inactive"),
    ("CC(=O)Oc1ccc2c(c1)Cc1cc(N3C(=O)C=CC3=O)ccc1-2", "active"),
    ("CCCNC(=O)OCc1c(COC(=O)NCCC)c(-c2ccc(Cl)c(Cl)c2)n2c1CCC2", "inactive"),
    ("CC(=O)NC(c1nc2cc(C)c(C)cc2[nH]1)c1nc2cc(C)c(C)cc2[nH]1", "inactive"),
    ("Cc1ccccc1NC(=O)c1c(C)oc2c1C(=O)c1ccccc1C2=O", "inactive"),
    ("Cc1cc2nc3ccccc3n2c2ccccc12", "inactive"),
    ("COC(=O)C(=O)CC(=O)c1cccc(OC)c1", "inactive"),
    ("CCCCCCNCCCNc1c2cc(OC)ccc2nc2cccc([N+](=O)[O-])c12", "inactive"),
    ("CN(C)CC(CN(C)C)C(=O)/C=C/c1ccc(Cl)cc1Cl", "inactive"),
    ("CCN(CC)CCNc1ccc2ncn3c4ccc(O)cc4c(=O)c1c23", "inactive"),
    ("CCCCCCC=C(C(=O)OCC)C(=O)OCC", "inactive"),
    ("O=C(O)c1cc2c(cc1S(=O)(=O)O)C1C(C3C2C2(Cl)C(Cl)=C(Cl)C3(Cl)C2(Cl)Cl)C2(Cl)C(Cl)=C(Cl)C1(Cl)C2(Cl)Cl (stereo not drawn)", "inactive"),
    ("CCN1CCC(O)(c2ccc(Oc3ccc(C)cc3)cc2)C(C(=O)c2ccc(Oc3ccc(C)cc3)cc2)C1 (stereo not drawn)", "active"),
    ("O=C1c2cccc3cccc(c23)C(=O)N1O", "inactive"),
    ("CCOC(=O)/C(=C\\c1ccc(F)cc1)C(C)=O", "inactive"),
    ("CC1C(c2ccccc2)SC(=N)N1C (stereo not drawn)", "inactive"),
    ("O=[N+]([O-])c1cc[n+]([O-])c(Cl)c1", "inactive"),
    ("Nc1cccc(-c2cc[cH-]c2)c1.[Fe+2].c1cc[cH-]c1", "inactive"),
    ("CSc1nc(-c2ccccc2)nc(=[N+]2CCOCC2)s1", "active"),
    ("O=C(/C(=C/c1ccc(O)cc1)c1ccccc1)c1ccccc1", "inactive"),
    ("CN1C(=O)C(CC(=O)O)NC1=S (stereo not drawn)", "inactive"),
    ("Cc1ccnc2c(O)cccc12", "active"),
    ("CC(C)OC(=O)NNc1cccc(Cl)c1", "active"),
    ("CSC(=S)N/N=C/c1ccccc1", "inactive"),
    ("Cc1c(Cl)c(C)c(Cl)c(O)c1Cl", "inactive"),
    ("CN(N=O)C(=O)Nc1ccc(C(=O)O)cc1", "inactive"),
    ("O=C1Oc2ccccc2C(=O)/C1=C/N1C(=O)N/C(=C\\c2ccccc2Br)C1=O", "inactive"),
    ("Clc1ccc(/C(=C\\c2ccccc2)Cn2ccnc2)cc1", "active"),
    ("CC(=O)CCC1=C(C)C(=O)C(=O)C(C)=C1O", "inactive"),
    ("CCOC(=O)/C(=C\\c1cccc(C)c1)C(C)=O", "inactive"),
]
